- Study system: T1, neuropilin-1 (NRP1) on HEK293 cells overexpressing NRP1 (UniProt O14786 22-923, limits assumed)
- T1 construct: whole, on cells
- Procedure details: flow cytometry, HEK293-NRP1 vs HEK293
Items are presented alongside their recorded 100 nM FACS (MFI Ratio).
Measurement label: 100 nM FACS (MFI Ratio)

| Binder | Value measured |
| --- | --- |
| NRP1-264 (antibody, IgG2, V domains shown) VH: EVQLLESGGGLVQPGGSLRLSCAASGFTFRGYAMSWVRQAPGKGLEWVSTISGSGGVTYYADSVKGRFTISRDNSKNTLYLQMNSLRAEDTAVYYCARVRVDARPRGMMSRYYGMDVWGQGTLVTVSS VL: DIQMTQSPSSLSASVGDRVTITCRASQSISNRLNWYQQKPGKAPKLLIYGASSLQPGVPSRFSGSGSGTDFTLTISSLQPEDFATYYCQQSFNTPRTFGGGTKVEIK | 3 |
| NRP1-65 (VHH) VHH: EVQLVESGGGLVQPGGSLRLSCAASGRTISNAAMGWFRQAPGKEREWVAAITSGGYTHYADSVKGRFTISADNSKNTAYLQMNSLKPEDTAVYYCAARRIVNVEGAYRDWGQGTLVTVSS | 0.7 |
| NRP1-223 (antibody, IgG2, V domains shown) VH: EVQLLESGGGLVQPGGSLRLSCAASGFTFKKYAMSWVRQAPGKGLEWVSTISGSGRSTYYADSVKGRFTISRDNSKNTLYLQMNSLRAEDTAVYYCARDLARGTMPRGVIIPHNWFDPWGQGTLVTVSS VL: DIQMTQSPSSLSASVGDRVTITCRASQSVRNYLNWYQQKPGKAPKLLIYGASRLHSGVPSRFSGSGSGTDFTLTISSLQPEDFATYYCQQSYSGPYSFGGGTKVEIK | 12.8 |

Source listed as patent US20230265198A1.
